Answer each item with its documented protein stability index.
tested on: Saccharomyces cerevisiae; assay: protein stability index of tFT-peptide fusion (C-terminal peptide) (PSI (0-1 scale)); higher = more stable (slower turnover); details: genetic background: das1 deletion; temperature: 30 C
I only need the number, thanks.

Task: Record request: protein stability index value, item HNGKNKNRNSKK [MPP6 C-terminal 12 aa]
Output: 0.691

Task: Item under review: KGDGKFWSSKKD [OM45 C-terminal 12 aa] . Reported protein stability index?
Output: 0.709

Task: Value lookup for protein stability index; key = GTLESFFKRKAK [POL32 C-terminal 12 aa]
Output: 0.732

Task: Requested field: protein stability index. Item: KDNNISSYGSII [YPL162C C-terminal 12 aa]
Output: 0.693

Task: Reported protein stability index, sequence YPVGQVDRDVCC [TAD3 C-terminal 12 aa] : ____
Output: 0.696

Task: Name the recorded protein stability index for RKEDDKRDTQEK [SOF1 C-terminal 12 aa] .
Output: 0.713

Task: Item under review: DLRCLKYKYKNA [YGR016W C-terminal 12 aa] . Reported protein stability index?
Output: 0.695

Task: What does the data say about its protein stability index? Entry: HNDNSGTVLGTA [RBD2 C-terminal 12 aa]
Output: 0.7

Task: Consider the sequence HTMENIFAGKLD [CUE4 C-terminal 12 aa] and give its measured protein stability index.
Output: 0.718

Task: Data request, read-out protein stability index, for GYYQRRNKRKRA [UTP20 C-terminal 12 aa]
Output: 0.749

Task: Value lookup for protein stability index; key = YTDLASIASGRD [SHS1 C-terminal 12 aa]
Output: 0.691

Task: Give the measured protein stability index of PGGGGGSPLIFL [YHR165W-A C-terminal 12 aa] .
Output: 0.73
